# TARGET OR TEST SYSTEM: T1, human tissue factor pathway inhibitor (TFPI) (human, UniProt P10646 29-304, limits assumed)
# T1 construct: bought; also called hTFPI; human TFPI
# T1 sequence (looked up): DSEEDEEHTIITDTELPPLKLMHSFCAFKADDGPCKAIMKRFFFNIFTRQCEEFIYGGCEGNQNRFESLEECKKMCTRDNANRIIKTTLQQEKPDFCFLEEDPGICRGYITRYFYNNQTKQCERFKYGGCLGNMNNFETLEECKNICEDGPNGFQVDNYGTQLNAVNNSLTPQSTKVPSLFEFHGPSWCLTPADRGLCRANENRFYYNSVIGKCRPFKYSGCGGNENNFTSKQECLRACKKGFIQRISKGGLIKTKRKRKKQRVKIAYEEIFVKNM
# ASSAY TEXT: competitive ELISA
METRIC: variant/HC_D62R (ratio)

INSERT INTO results (binder, metric, measurement_unit, assay_result) VALUES
  ('4B7 HC N32D+D62Q+H107M+Y112D/LC S32R+N35T (Fab, V domains shown) VH: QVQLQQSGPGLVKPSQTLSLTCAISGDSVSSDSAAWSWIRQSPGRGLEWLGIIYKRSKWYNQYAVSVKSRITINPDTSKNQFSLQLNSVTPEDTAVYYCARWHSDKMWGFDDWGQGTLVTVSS VL: DIVMTQSPLSLPVTPGEPASISCRSSQSLVFRDGTTYLNWYLQKPGQSPQLLIYKGSNRASGVPDRFSGSGSGTDFTLKISRVEAEDVGVYYCQQYDSYPLTFGQGTKVEIKR', 'variant/HC_D62R', 'ratio', 25),
  ('4B7 HC N32D+D62Q+Y112D/LC V30L+F31I+D33F+N35I (Fab, V domains shown) VH: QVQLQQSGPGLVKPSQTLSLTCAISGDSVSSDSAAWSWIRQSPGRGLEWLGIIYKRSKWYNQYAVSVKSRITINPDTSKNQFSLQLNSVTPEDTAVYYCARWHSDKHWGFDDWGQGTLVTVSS VL: DIVMTQSPLSLPVTPGEPASISCRSSQSLLISFGITYLNWYLQKPGQSPQLLIYKGSNRASGVPDRFSGSGSGTDFTLKISRVEAEDVGVYYCQQYDSYPLTFGQGTKVEIKR', 'variant/HC_D62R', 'ratio', 22.9),
  ('4B7 HC N32D+D62R+H103D+H107M+Y112D/LC S32R+N35T (Fab, V domains shown) VH: QVQLQQSGPGLVKPSQTLSLTCAISGDSVSSDSAAWSWIRQSPGRGLEWLGIIYKRSKWYNRYAVSVKSRITINPDTSKNQFSLQLNSVTPEDTAVYYCARWDSDKMWGFDDWGQGTLVTVSS VL: DIVMTQSPLSLPVTPGEPASISCRSSQSLVFRDGTTYLNWYLQKPGQSPQLLIYKGSNRASGVPDRFSGSGSGTDFTLKISRVEAEDVGVYYCQQYDSYPLTFGQGTKVEIKR', 'variant/HC_D62R', 'ratio', 14),
  ('4B7 HC N32D+D62R+H107M+Y112D/LC F31M+S32L+D33R+N35I+D97T (Fab, V domains shown) VH: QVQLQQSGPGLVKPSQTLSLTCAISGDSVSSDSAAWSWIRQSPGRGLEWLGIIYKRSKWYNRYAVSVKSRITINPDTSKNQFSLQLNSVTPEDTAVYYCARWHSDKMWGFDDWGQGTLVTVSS VL: DIVMTQSPLSLPVTPGEPASISCRSSQSLVMLRGITYLNWYLQKPGQSPQLLIYKGSNRASGVPDRFSGSGSGTDFTLKISRVEAEDVGVYYCQQYTSYPLTFGQGTKVEIKR', 'variant/HC_D62R', 'ratio', 32.2),
  ('4B7 HC N32D+D62R+H107M+Y112D/LC F31I+N35I (Fab, V domains shown) VH: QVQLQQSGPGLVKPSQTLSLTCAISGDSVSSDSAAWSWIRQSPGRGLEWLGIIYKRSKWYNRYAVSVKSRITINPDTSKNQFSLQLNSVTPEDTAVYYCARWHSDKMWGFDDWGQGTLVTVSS VL: DIVMTQSPLSLPVTPGEPASISCRSSQSLVISDGITYLNWYLQKPGQSPQLLIYKGSNRASGVPDRFSGSGSGTDFTLKISRVEAEDVGVYYCQQYDSYPLTFGQGTKVEIKR', 'variant/HC_D62R', 'ratio', 28.8),
  ('4B7 HC N32D+D62R+Y112D/LC F31M+S32R+D33R+N35I (Fab, V domains shown) VH: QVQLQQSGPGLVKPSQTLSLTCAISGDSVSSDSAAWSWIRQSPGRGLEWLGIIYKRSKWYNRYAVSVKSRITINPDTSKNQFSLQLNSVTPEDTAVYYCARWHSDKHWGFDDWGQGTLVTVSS VL: DIVMTQSPLSLPVTPGEPASISCRSSQSLVMRRGITYLNWYLQKPGQSPQLLIYKGSNRASGVPDRFSGSGSGTDFTLKISRVEAEDVGVYYCQQYDSYPLTFGQGTKVEIKR', 'variant/HC_D62R', 'ratio', 15.8),
  ('B32.5 (4B7 HC D62R+Y112D/LC D33F+N35I) (Fab, V domains shown) VH: QVQLQQSGPGLVKPSQTLSLTCAISGDSVSSNSAAWSWIRQSPGRGLEWLGIIYKRSKWYNRYAVSVKSRITINPDTSKNQFSLQLNSVTPEDTAVYYCARWHSDKHWGFDDWGQGTLVTVSS VL: DIVMTQSPLSLPVTPGEPASISCRSSQSLVFSFGITYLNWYLQKPGQSPQLLIYKGSNRASGVPDRFSGSGSGTDFTLKISRVEAEDVGVYYCQQYDSYPLTFGQGTKVEIKR', 'variant/HC_D62R', 'ratio', 20.3),
  ('4B7 HC N32D+D62Q+Y112D/LC S32R+D33R+N35I (Fab, V domains shown) VH: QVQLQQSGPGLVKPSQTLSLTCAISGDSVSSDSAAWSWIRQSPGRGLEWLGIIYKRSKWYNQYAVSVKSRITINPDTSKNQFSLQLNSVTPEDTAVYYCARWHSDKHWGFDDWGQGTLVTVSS VL: DIVMTQSPLSLPVTPGEPASISCRSSQSLVFRRGITYLNWYLQKPGQSPQLLIYKGSNRASGVPDRFSGSGSGTDFTLKISRVEAEDVGVYYCQQYDSYPLTFGQGTKVEIKR', 'variant/HC_D62R', 'ratio', 21.4),
  ('4B7 HC N32D+D62R+H107M+Y112D/LC F31M+D33F+N35T (Fab, V domains shown) VH: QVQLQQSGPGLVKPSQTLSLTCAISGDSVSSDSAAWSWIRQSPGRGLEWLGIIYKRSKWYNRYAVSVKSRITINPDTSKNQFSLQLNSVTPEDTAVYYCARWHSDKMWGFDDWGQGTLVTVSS VL: DIVMTQSPLSLPVTPGEPASISCRSSQSLVMSFGTTYLNWYLQKPGQSPQLLIYKGSNRASGVPDRFSGSGSGTDFTLKISRVEAEDVGVYYCQQYDSYPLTFGQGTKVEIKR', 'variant/HC_D62R', 'ratio', 29.9),
  ('4B7 HC N32D+D62R+Y112D/LC F31Y+S32R+D33F+N35I+D97T (Fab, V domains shown) VH: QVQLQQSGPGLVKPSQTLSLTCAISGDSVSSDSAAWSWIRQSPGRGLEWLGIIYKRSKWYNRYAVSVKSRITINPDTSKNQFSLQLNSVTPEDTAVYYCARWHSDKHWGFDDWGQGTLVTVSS VL: DIVMTQSPLSLPVTPGEPASISCRSSQSLVYRFGITYLNWYLQKPGQSPQLLIYKGSNRASGVPDRFSGSGSGTDFTLKISRVEAEDVGVYYCQQYTSYPLTFGQGTKVEIKR', 'variant/HC_D62R', 'ratio', 27.9);
